assay_protocol: Pharmacokinetics following intravenous and oral administration in SD rats
Format: in vivo
test_parameters: male, SD, rat, plasma, iv, 1 mg/kg, IV 1 mg/kg, individual rats 201-203, read-out: AUC(0-t)
outcome_measure: AUC(0-t) (ng·h/mL)
Express it in ng·h/mL; write the number only.

## Task Bench note: what AUC(0-t) did CCc1nc2ccccn2c1C(=O)c1cc(Br)c(O)c(C#N)c1 [Compound 74] show?
## Result 8790

---

assay_protocol: Pharmacokinetics following intravenous and oral administration in SD rats
Format: in vivo
test_parameters: male, SD, rat, plasma, iv, 1 mg/kg, IV 1 mg/kg, individual rats 201-203, read-out: Tmax
outcome_measure: Tmax (min)
Express it in min; write the number only.

## Task Bench note: what Tmax did CCc1nc2ccccn2c1C(=O)c1cc(Br)c(O)c(C#N)c1 show?
## Result 6
